Data credit: patent US20250034134A1

experiment: Pharmacokinetics in mice; type: in vivo; conditions: mouse, po; male CD-1 mice, 10 mg/kg, gavage, plasma
observable: Cmax (ng/mL)
Give your result in ng/mL as a bare value.

Query: State the recorded Cmax for this entry: Cn1ccc2cc(N3CC4CC4c4cc(C(=O)N5CCC(F)(F)CC5)cnc43)ccc2c1=O (centres unmarked)
Response: 14800

Query: Try the molecule Cn1nc2cc(N3CC4CC4c4cc(C(=O)N5CCC6(CC5)CC6)cnc43)ccn2c1=O (centres unmarked)
Response: 5040

---

Field: IC50. Provide a value for each of the molecules that follow.
target: 15-PGDH (Homo sapiens (Human))
Sequence (P15428 whole entry): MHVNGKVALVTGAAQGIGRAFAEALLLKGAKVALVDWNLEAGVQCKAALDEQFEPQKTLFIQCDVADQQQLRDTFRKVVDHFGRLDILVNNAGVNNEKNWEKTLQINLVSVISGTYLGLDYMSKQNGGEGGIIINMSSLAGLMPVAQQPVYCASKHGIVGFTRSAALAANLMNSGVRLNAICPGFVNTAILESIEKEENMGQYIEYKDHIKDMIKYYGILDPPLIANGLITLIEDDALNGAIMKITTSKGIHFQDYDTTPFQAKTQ
Give your result in nM as a bare value.

Query: State the recorded IC50 for this entry: CN1Cc2cc(N3CC4CC4c4cc(C(=O)N5CCC(F)(F)CC5)cnc43)ccc2C1=O (stereo not drawn) [Compound I-1]
Response: 4.3

Query: Try the molecule CNC(=O)c1ccc(N2CC3CC3c3cc(C(=O)N4CCC(F)(F)CC4)cnc32)cc1F (stereo not drawn) [Compound I-9]
Response: 9.51

Query: Try the molecule Cn1nc2cc(N3CC4CC4c4cc(C(=O)N5CCC(F)(F)C5)cnc43)ccn2c1=O (stereo not drawn) [Compound I-21]
Response: 4.95

Query: Try the molecule Cn1nc2cc(N3CC4CC4c4cc(C(=O)N5CCC[C@@H](CF)C5)cnc43)ccn2c1=O (stereo partly drawn) [Compound I-30]
Response: 6

Query: Try the molecule Cn1ncc2cc(N3CC4CC4c4cc(C(=O)N5CCC(F)(F)CC5)ccc43)ccc2c1=O (stereo not drawn) [Compound I-13]
Response: 4.03

Query: Try the molecule CN1C(=O)c2ncc(N3CC4CC4c4cc(C(=O)N5CCC(F)(F)CC5)cnc43)cc2C12CC2 (stereo not drawn) [Compound I-19]
Response: 3.72

Query: Try the molecule Cn1ccc2cc(N3CC4CC4c4cc(C(=O)N5CCC(F)(F)CC5)cnc43)ccc2c1=O (single isomer, unassigned) [Compound I-12A]
Response: 1.52

Query: Try the molecule Cn1nc2cc(N3CC4CC4c4cc(C(=O)N5CCC[C@H](CF)C5)cnc43)ccn2c1=O (stereo partly drawn) [Compound I-31]
Response: 4.1

Query: Try the molecule N#Cc1ccc(N2CC3CC3c3cc(C(=O)N4CCC(F)(F)CC4)cnc32)cc1 (stereo not drawn) [Compound I-11]
Response: 3.8

Query: Try the molecule Cn1ccc2cc(N3CC4CC4c4cc(C(=O)N5CCC(F)(F)CC5)cnc43)ccc2c1=O (single isomer, unassigned) [Compound I-12B]
Response: 7.42

Query: Try the molecule Cn1nc2cc(N3CC4CC4c4cc(C(=O)N5CCCC(C(F)(F)F)C5)cnc43)ccn2c1=O (stereo not drawn) [Compound I-26]
Response: 9.9

Query: Try the molecule Cn1nc2cc(N3CC4CC4c4cc(C(=O)N5CCCC(F)C5)cnc43)ccn2c1=O (stereo not drawn) [Compound I-27]
Response: 5.7

Query: Try the molecule [2H]C([2H])([2H])n1nc2cc(N3CC4CC4c4cc(C(=O)N5CCC(F)(F)CC5)cnc43)ccn2c1=O (single isomer, unassigned) [Compound I-25A]
Response: 15.8

Query: Try the molecule Cn1cnc2cc(N3CC4CC4c4cc(C(=O)N5CCC(F)(F)CC5)ccc43)cnc2c1=O (stereo not drawn) [Compound I-15]
Response: 5.7

Query: Try the molecule Cn1nc2cc(N3CC4CC4c4cc(C(=O)N5CC6CC6C5)cnc43)ccn2c1=O (stereo not drawn) [Compound I-29]
Response: 5.3

Query: Try the molecule Cn1ccc2cc(N3CC4CC4c4cc(C(=O)N5CCC(F)(F)CC5)cnc43)ccc2c1=O (stereo not drawn) [Compound I-12]
Response: 2.1

Query: Try the molecule CN1Cc2cc(N3CC4CC4c4cc(C(=O)N5CCC(F)(F)CC5)cnc43)ncc2C1=O (stereo not drawn) [Compound I-18]
Response: 20

Query: Try the molecule O=C(c1cnc2c(c1)C1CC1CN2c1ccn2cnnc2c1)N1CCC(F)(F)CC1 (stereo not drawn) [Compound I-17]
Response: 4.5

Query: Try the molecule [2H]C([2H])([2H])n1nc2cc(N3CC4CC4c4cc(C(=O)N5CCC(F)(F)CC5)cnc43)ccn2c1=O (single isomer, unassigned) [Compound I-25B]
Response: 3.78

Query: Try the molecule CCn1nc2cc(N3CC4CC4c4cc(C(=O)N5CCC(F)(F)CC5)cnc43)ccn2c1=O (stereo not drawn) [Compound I-32]
Response: 6.3

Query: Try the molecule Cn1nc2cc(N3CC4CC4c4cc(C(=O)N5CCC6(CC5)CC6)cnc43)ccn2c1=O (stereo not drawn) [Compound I-28]
Response: 1.71

Query: Try the molecule Cn1nc2cc(N3CC4CC4c4cc(C(=O)N5CC(C)(F)C5)cnc43)ccn2c1=O (stereo not drawn) [Compound I-20]
Response: 2.83

Query: Try the molecule Cn1nc2cc(N3CC4CC4c4cc(C(=O)N5CCCC(C(F)F)C5)cnc43)ccn2c1=O (stereo not drawn) [Compound I-23]
Response: 4.26

Query: Try the molecule Cn1nc2cc(N3CC4CC4c4cc(C(=O)N5CCCC(F)(F)C5)cnc43)ccn2c1=O (stereo not drawn) [Compound I-24]
Response: 4.23

Query: Try the molecule O=C(c1cnc2c(c1)C1CC1CN2c1ccn2ncnc2c1)N1CCC(F)(F)CC1 (stereo not drawn) [Compound I-16]
Response: 5.4

Query: Try the molecule Cn1ncc2cc(N3CC4CC4c4cc(C(=O)N5CCC(F)(F)CC5)ccc43)cnc2c1=O (stereo not drawn) [Compound I-14]
Response: 8.6

Query: Try the molecule CN1Cc2cc(N3CC4CC4c4cc(C(=O)N5CCC(F)(F)CC5)cnc43)cnc2C1=O (stereo not drawn) [Compound I-2]
Response: 5.15
